molecular target: full length NS3/4a (Hepatitis C virus genotype 1b (isolate BK) (HCV), UniProt P26663); experiment: NS3 Protease Assay (Example A), FRET-based; assay type: biochemical; conditions: HCV NS3 protease assay, full length NS3/4a; read-out: Assay A IC50 (μM) average
Sequence (P26663 1027-1657): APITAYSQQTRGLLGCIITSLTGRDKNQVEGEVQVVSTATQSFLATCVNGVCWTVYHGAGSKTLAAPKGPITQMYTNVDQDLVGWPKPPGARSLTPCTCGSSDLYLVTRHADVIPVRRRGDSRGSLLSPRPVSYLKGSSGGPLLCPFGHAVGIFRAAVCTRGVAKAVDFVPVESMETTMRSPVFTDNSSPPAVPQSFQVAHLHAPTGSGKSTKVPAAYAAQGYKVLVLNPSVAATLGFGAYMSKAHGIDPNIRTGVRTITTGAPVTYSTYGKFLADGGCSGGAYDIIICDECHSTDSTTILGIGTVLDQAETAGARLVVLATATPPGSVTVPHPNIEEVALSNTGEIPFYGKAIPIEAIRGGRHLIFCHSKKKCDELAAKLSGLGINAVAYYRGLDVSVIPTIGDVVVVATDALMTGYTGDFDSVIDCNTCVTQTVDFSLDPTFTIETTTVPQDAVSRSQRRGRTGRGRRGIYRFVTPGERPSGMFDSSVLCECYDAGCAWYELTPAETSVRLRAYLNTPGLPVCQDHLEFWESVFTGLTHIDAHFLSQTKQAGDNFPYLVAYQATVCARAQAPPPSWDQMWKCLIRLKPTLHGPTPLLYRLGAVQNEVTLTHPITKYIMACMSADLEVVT
MEASUREMENT_NAME: log10 IC50 (log10 of the value in µM)
Please note: log10 values; quantity IC50; unit µM.

CC[C@@H](N[C@@H](C)CC(N)=O)c1ccc(C)c(C(=O)c2ccccc2)c1F ... -1.17
C[C@H](CC(N)=O)N[C@@H](c1ccc(Cl)c(C(=O)c2ccc(C#N)cc2)c1F)C1CC1 ... -0.55

Please state recorded log10 IC50 (tested on full length NS3/4a (Hepatitis C virus genotype 1b (isolate BK) (HCV), UniProt P26663)) of [2H]C([2H])([2H])C([2H])([2H])[C@@H](N[C@@H](C)CC(N)=O)c1ccc(Cl)c(C(=O)c2ccc3c(c2)OCC(=O)N3)c1F
-0.52

Please state recorded log10 IC50 (tested on full length NS3/4a (Hepatitis C virus genotype 1b (isolate BK) (HCV), UniProt P26663)) of CC[C@@H](N)c1ccc(Cl)c(C(=O)c2ccns2)c1F
-0.33
